# Tested on: Cryptococcus neoformans
# condition_notes: Concentration 32 ug.mL-1; ASSAY_TEST Inhibition of Fungal Growth; detection method Resazurin; Absorption (OD600-OD570); plate type 384well; NBS; CORNING #3640
# Description: Antifungal activity against Cryptococcus neoformans H99 ATCC 208821 (CO-ADD:FG_002); MIC in YNB media using NBS plates, by Resazurin OD(600-570)
Measured potencies and affinities stand elsewhere.

[
  {
    "compound": "COC(=O)c1ccccc1NC(=O)Cn1nc2c(Oc3cccc(OC)c3)nccn2c1=O",
    "Inhibition / %": -7.59
  },
  {
    "compound": "CCc1ccccc1Sc1nccn2c(=O)n(CC(=O)Nc3cccc(Br)c3)nc12",
    "Inhibition / %": -6.91
  },
  {
    "compound": "Cc1cc2nn(CC(=O)Nc3ccc(F)cc3C)c(=O)n2c(Nc2ccc(F)cc2)n1",
    "Inhibition / %": -2.95
  },
  {
    "compound": "CCc1nnc2c(S(=O)(=O)N(Cc3cccc(Cl)c3)c3ccccc3)cccn12",
    "Inhibition / %": -7.64
  },
  {
    "compound": "COc1ccc(NC(=O)C(C)Sc2nnc3c(=O)n(-c4ccccc4)ccn23)cc1 (stereo not given)",
    "Inhibition / %": -7.55
  },
  {
    "compound": "Cc1ccc(-c2cc3c4nn(CC(=O)Nc5ccc6c(c5)OCO6)c(=O)n4ccn3n2)cc1C",
    "Inhibition / %": -8.66
  },
  {
    "compound": "COc1ccccc1N1CCN(C(=O)CSc2nnc3c(=O)n(-c4ccc(F)cc4)ccn23)CC1",
    "Inhibition / %": -8.01
  },
  {
    "compound": "CCCCN(CC)c1ccc2nnc(CCc3nc(-c4ccc(OCc5ccccc5)cc4)no3)n2n1",
    "Inhibition / %": -16.46
  },
  {
    "compound": "CCOC(=O)c1ccccc1NC(=O)Cn1c(=O)c2nnc(C(C)C)n2c2ccccc21",
    "Inhibition / %": -21.33
  },
  {
    "compound": "CCCNC(=O)CSc1nnc2c(=O)n(-c3ccc(F)cc3)ccn12",
    "Inhibition / %": -15.58
  }
]
